Where melting point equals or exceeds 200 °C, the correct label is class 1; where it does not, the label is class 0.

compound: CCN(CCO)CCO
cat: class 0
//
compound: Cc1nc(-c2ccccc2)no1
cat: class 0
//
compound: Cc1cnccc1N
cat: class 0
//
compound: CC(C)(C)c1cc(N)c(O)c(C(C)(C)C)c1
cat: class 0
//
compound: CCNC(N)=S
cat: class 0
//
compound: O=C1NC(=O)C(Cl)C(=O)N1
cat: class 1
//
compound: CNC(=O)C(C)(C(C)C)C(C)C
cat: class 0
//
compound: CCN(Cc1c(F)cccc1Cl)c1c([N+](=O)[O-])cc(C(F)(F)F)cc1[N+](=O)[O-]
cat: class 0
//
compound: O=C(Nc1ccc2nn(C3CCCCC3)nc2c1)c1ccccc1
cat: class 1
//
compound: O=C(O)c1ccc2c(c1)CCCC2
cat: class 0
//
compound: COc1ccc(C=C(S)C(=O)O)cc1
cat: class 0
//
compound: Cc1cccc(C)c1NC(=O)c1cnc(C(C)(C)C)cn1
cat: class 0
//
compound: Cc1cc(N)ccc1O
cat: class 0
//
compound: COc1ccc(C=C2C(=O)NN=C2c2c(O)c3ccccc3n(C)c2=O)cc1
cat: class 1
//
compound: Nc1ncnc2c1cnn2CCO
cat: class 1
//
compound: O=C(O)c1cc(O)c(O)c(O)c1
cat: class 1

----------
Measured melting point accompanies every entry in the list below.
assay_readout: melting point (°C)

molecule: OCC1OC(Oc2ccc(O)cc2)C(O)C(O)C1O (stereo unspecified)
assay_readout: melting point
reported: 200

molecule: O=[N+]([O-])c1ccccc1C(Br)C(Br)c1ccccn1 (stereo unspecified)
assay_readout: melting point
reported: 182

molecule: CC1(C2CCC3C4CCC5CC(O)CCC5(C)C4CCC32C)OCCO1 (stereo unspecified)
assay_readout: melting point
reported: 174

molecule: CCOC(=O)C(C#N)=C(SC)SC
assay_readout: melting point
reported: 70

----------
Measured melting point accompanies every entry in the list below.

compound: Clc1cccc2cc[nH]c12
melting point, °C: 58
--
compound: CCC(C1CCCCC1)C1CCCCC1
melting point, °C: -23.5
--
compound: N#CCC(=O)c1cccc(Cl)c1
melting point, °C: 81
--
compound: O=C(OC(=O)c1ccncc1)c1ccncc1
melting point, °C: 133
--
compound: O=C(O)Cn1c(C(F)(F)F)nc2ccccc21
melting point, °C: 248

----------
Measured melting point accompanies every entry in the list below.

molecule: CC(=O)OC1CC2C3CC=C4CC(O)CCC4(C)C3CCC2(C)C1C(C)C1CCC(C)CN1 (stereo unspecified)
melting point: 210 °C

molecule: O=C(CS)Nc1ccc(F)cc1
melting point: 92 to 94 °C

molecule: CSc1nc2cc(N=Cc3ccc([N+](=O)[O-])cc3)ccc2[nH]1
melting point: 259 to 260 °C

molecule: O=C(O)c1cnc2ccccc2c1
melting point: 277 to 283 °C

molecule: O=P(O)(O)CCP(=O)(O)O
melting point: 218 °C

molecule: O=C(O)CC=Cc1ccccc1
melting point: 87 °C

molecule: COc1ccc(Cc2c(N)nn3c(C)cc(C)nc23)cc1
melting point: 159 to 160 °C

molecule: CN(C)c1nc(-c2cccs2)cc(C(F)(F)F)c1C#N
melting point: 118 to 119 °C

molecule: Cc1nccc2ccccc12
melting point: 10 °C

molecule: COC(=O)c1cc2occc2n1C
melting point: 81 to 82 °C

molecule: COC(=O)c1scc(C)c1N
melting point: 86 to 87 °C

molecule: CN(C)NN=C1N=CN=C1C(N)=O
melting point: 205 °C

molecule: O=C(C=Cc1ccc(F)cc1)c1ccc(F)cc1
melting point: 113 to 118 °C

molecule: CC(=O)c1ccc2c(c1)NC(=O)CO2
melting point: 196 °C

molecule: CCN(CC)C(=O)c1cccnc1
melting point: 25 °C

molecule: Cc1ccc(S(=O)(=O)n2ccnc2)cc1
melting point: 75 to 80 °C

molecule: NS(=O)(=O)c1ccc(-c2ccc(C=O)o2)cc1
melting point: 199 to 201 °C

molecule: Ic1ccc(I)c(I)c1I
melting point: 136 °C

molecule: c1cnc2c(SSc3cccc4cccnc34)cccc2c1
melting point: 205 to 206 °C

molecule: O=[N+]([O-])c1cc(C(F)(F)F)ccc1CCl
melting point: 44 °C

molecule: Clc1ccc2c(c1)Cc1cc(Cl)ccc1-2
melting point: 128 °C

molecule: CN1C(=O)CN(C(=O)OC(C)(C)C)[C@@H]1C(C)(C)C
melting point: 66 to 70 °C

molecule: COc1ccc(C(O)C(=O)O)cc1O (racemic)
melting point: 125 to 132 °C

molecule: C=Cc1ccc(C(N)=O)cc1
melting point: 170 °C

molecule: c1cc2ccc1CCc1ccc(cc1)CC2
melting point: 285 to 288 °C

molecule: CCCCOCCOCCOC(=O)CCCCC(=O)OCCOCCOCCCC
melting point: -47 °C
